target system: PRMT1 (Homo sapiens)
Construct: GST-tagged PRMT1; made in house; host or cells: High Five insect cells (baculovirus, pFastBacI)
Sequence (Q99873 with tags, fused parts or gaps): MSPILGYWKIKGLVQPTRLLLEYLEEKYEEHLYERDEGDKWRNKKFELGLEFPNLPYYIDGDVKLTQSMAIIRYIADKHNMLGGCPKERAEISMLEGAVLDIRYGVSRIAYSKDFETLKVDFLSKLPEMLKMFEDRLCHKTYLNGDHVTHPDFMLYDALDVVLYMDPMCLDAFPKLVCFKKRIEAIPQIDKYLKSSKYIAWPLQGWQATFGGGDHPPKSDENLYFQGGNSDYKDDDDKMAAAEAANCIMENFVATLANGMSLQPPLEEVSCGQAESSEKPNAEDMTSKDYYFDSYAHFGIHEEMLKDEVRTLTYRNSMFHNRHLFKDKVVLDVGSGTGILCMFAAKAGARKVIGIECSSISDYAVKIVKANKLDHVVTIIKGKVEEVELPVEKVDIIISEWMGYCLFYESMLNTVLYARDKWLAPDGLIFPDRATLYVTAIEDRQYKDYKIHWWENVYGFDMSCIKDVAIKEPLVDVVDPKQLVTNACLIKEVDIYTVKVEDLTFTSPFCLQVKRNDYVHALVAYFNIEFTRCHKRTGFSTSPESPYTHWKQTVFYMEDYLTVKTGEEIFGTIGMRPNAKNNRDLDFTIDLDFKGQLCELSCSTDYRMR
protocol notes: PRMT1 Biochemical Assay (3H-SAM Flashplate, histone H4 peptide substrate)
reported conditions: Biochemical IC50 (Numerical, μM) PRMT1, single experiment or average of multiple experiments, Table 2a
observable: IC50 (µM)
Form entry: value (µM) — number only.

Ask: Reported IC50 for CNCCN(C)Cc1c[nH]nc1-c1ccc(OCCCOC)c(C(F)(F)F)c1 : what is it?
Result: 0.0108

Ask: Would you mind telling me what IC50 value was observed for CNCCN(C)Cc1c[nH]nc1-c1cc(OCCC(C)C)c(Cl)c(C(F)(F)F)c1 ?
Result: 0.146

Ask: Can you look up the measured IC50 of CNCCN(C)Cc1c[nH]nc1-c1cc(Cl)c(OCC2CCC2)c(C(F)(F)F)c1 for me?
Result: 0.00431

Ask: Name the reported IC50 value associated with the compound CNCCN(C)Cc1c[nH]nc1-c1cc(C)c(OCC2CCC2)c(C(F)(F)F)c1
Result: 0.00706

Ask: I am curious: what IC50 value has been reported for CNCCN(C)Cc1c[nH]nc1-c1cc(OCCCOC)c(Cl)c(C(F)(F)F)c1 ?
Result: 0.0318

Ask: Any idea what its IC50 is? The compound is CC(C)Oc1ccc(-c2c[nH]nc2CN(C)CCN)cc1C(F)(F)F
Result: 0.0165

Ask: May I ask what IC50 has been recorded for CNCCN(C)Cc1c[nH]nc1-c1cc(OCC2CCCC2)cc(C(F)(F)F)c1 ?
Result: 0.0103

Ask: Give the measured IC50 of CNCCN(C)Cc1n[nH]cc1-c1ccc(OCC(C)C)c(C(F)(F)F)c1 .
Result: 0.00988

Ask: Fill blank: measured IC50 of the compound CNCCN(C)Cc1c[nH]nc1-c1cc(Oc2cncnc2)cc(C(F)(F)F)c1 is ____.
Result: 0.299

Ask: Param item = CNCCN(C)Cc1n[nH]cc1-c1ccc(OCCCOC)c(C(F)(F)F)c1 ; retrieve measured IC50.
Result: 0.0553

Ask: Which IC50 is reported for this compound? CNCCN(C)Cc1c[nH]nc1-c1cc(Cl)c(OCC2CC2)c(C(F)(F)F)c1
Result: 0.00636

Ask: Reported IC50 for CNCCN(C)Cc1c[nH]nc1-c1cc(OCCOC)c(F)c(C(F)(F)F)c1 : what is it?
Result: 0.104

Ask: May I ask what IC50 has been recorded for CNCCN(C)Cc1c[nH]nc1-c1ccc(OCC(C)C)c(C(F)(F)F)c1 ?
Result: 0.00451

Ask: What value of measured IC50 is listed for CC(C)Oc1ccc(-c2n[nH]cc2CN(C)CCN)cc1C(F)(F)F ?
Result: 0.00445

Ask: I have this compound here, CNCCN(C)Cc1n[nH]cc1-c1cc(OCC(C)C)cc(C(F)(F)F)c1 , and I need its recorded IC50.
Result: 0.0663

Ask: What IC50 value was documented for this compound, CN(CCN)Cc1c[nH]nc1-c1cc(C(F)(F)F)cc(C(F)(F)F)c1 ?
Result: 0.389

Ask: # get_value(readout='IC50', item= CNCCN(C)Cc1c[nH]nc1-c1cc(OCC2CCOCC2)cc(C(F)(F)F)c1 )
Result: 0.0282

Ask: Which IC50 is reported for this compound? CNCCN(C)Cc1c[nH]nc1-c1cc(OCCCC(F)(F)F)cc(C(F)(F)F)c1
Result: 0.0303
